Below, each entry is listed with its recorded self-cleavage.
B1: LINE1-mini (parent)
chain: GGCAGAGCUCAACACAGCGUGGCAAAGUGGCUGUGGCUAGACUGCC

- Variants of: B1
- METHOD SUMMARY: self-cleavage, relative activity (ratio to wild type); higher = more cleavage; in vitro, sequencing; the parent is a self-cleaving ribozyme
EXPERIMENTAL READOUT: self-cleavage

{"columns": ["VARIANT LABEL", "EXPERIMENTAL READOUT", "DATA VALUE"],
 "data": [
  ["C18A C42U", "self-cleavage", 0.13],
  ["U9A U38A", "self-cleavage", 0.08],
  ["A11C C15G", "self-cleavage", 0.02],
  ["C3U U43G", "self-cleavage", 0.2],
  ["G27U G29C", "self-cleavage", 0.27],
  ["C13U U20C", "self-cleavage", 0.09],
  ["C3G C45U", "self-cleavage", 0.33],
  ["U9C C18G", "self-cleavage", 0.03],
  ["A4U C10A", "self-cleavage", 0.04],
  ["U20A A26C", "self-cleavage", 0.76],
  ["G33U G35C", "self-cleavage", 0.06]
]}

Where do the numbers come from? From the RNAGym collection of RNA variant scans (doi:10.7554/elife.90254).
